Exercise: for every item that follows, state its recorded activity at 10 µM.
Test Target: GATA4–NKX2-5 transcriptional synergy (Mus musculus, UniProt P42582+Q08369)
Construct: expressed in transfected cells; host or cells: COS-1
Sequence (Q08369 whole entry): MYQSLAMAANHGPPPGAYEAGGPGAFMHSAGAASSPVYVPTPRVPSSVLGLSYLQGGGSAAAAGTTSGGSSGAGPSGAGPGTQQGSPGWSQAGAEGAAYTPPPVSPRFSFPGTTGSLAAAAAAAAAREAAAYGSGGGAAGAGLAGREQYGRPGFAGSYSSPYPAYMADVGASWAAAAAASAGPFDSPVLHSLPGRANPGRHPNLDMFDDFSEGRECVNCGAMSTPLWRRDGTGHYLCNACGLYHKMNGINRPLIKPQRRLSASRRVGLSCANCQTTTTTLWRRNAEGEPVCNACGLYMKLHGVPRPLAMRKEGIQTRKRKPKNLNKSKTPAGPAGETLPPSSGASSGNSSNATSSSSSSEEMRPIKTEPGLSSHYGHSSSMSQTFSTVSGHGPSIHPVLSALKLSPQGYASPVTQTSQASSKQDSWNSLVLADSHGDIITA
Sequence (P42582 whole entry): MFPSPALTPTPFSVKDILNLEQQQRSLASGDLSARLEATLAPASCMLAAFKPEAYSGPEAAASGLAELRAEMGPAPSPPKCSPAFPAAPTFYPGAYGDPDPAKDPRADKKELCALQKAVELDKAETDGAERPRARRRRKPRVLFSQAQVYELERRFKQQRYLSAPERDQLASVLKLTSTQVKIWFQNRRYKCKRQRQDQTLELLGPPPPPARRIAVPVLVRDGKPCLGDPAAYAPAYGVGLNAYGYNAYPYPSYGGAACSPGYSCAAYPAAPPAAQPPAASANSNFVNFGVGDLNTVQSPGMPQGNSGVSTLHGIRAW
Protocol Notes: GATA4–NKX2-5 transcriptional synergy luciferase reporter assay (3xNKE reporter, COS-1 cells)
Type: cell-based
Measurement Conditions: COS-1; compound 10 µM; luciferase reporter activity; spread in separate STDEV column
The figure you give is taken to be in %; do not add the unit.

Any idea what activity at 10 µM was measured for CCN(CC)c1ccc(NC(=O)c2c(-c3cc(C)on3)noc2C)cc1 [Compound 39o] ?
102

For N#Cc1ccc(NC(=O)c2cc(-c3ccncc3)[nH]n2)cc1 [SI118] then?
102

For Cc1onc(-c2ccccc2)c1C(=O)Nc1ccc(C(=O)OCc2ccco2)cc1 [SI2] then?
82.7

For Cc1onc(-c2ccccc2)c1C(=O)N(C)c1ccc(C(=O)O)cc1 [Compound 68] then?
127

For CCSCCOC(=O)c1ccc(NC(=O)c2c(-c3ccccc3)noc2C)cc1 [SI1] then?
104
